# credit: paper PMC7793522

experimental_target: T1, EBV peptide on HLA-B*35:01 (human)
T1 peptide: EPLPQGQLTAY
measurement_description: data from [98]; method not given; soluble, other
assay_readout: pKd
Remember the convention: pKd equals -log10 of concentration in molar.

Record ELS4 (TCR) alpha TRAV1-2*01 CDR3: AVQASGGSYIPT beta TRBV10-3*01 CDR3: ATGTGDSNQPQH . Reported pKd: 4.52
